System: methicillin-resistant Staphylococcus aureus (MRSA)
test summary: MIC, two-fold agar dilution (CLSI), clinical isolates
Type: cell-based
condition description: strain printed MRSA 14-1 (second line of that name, r23, before MRSE 14-2)
measure: MIC (anti-bacterial activity) (µg/mL)
Record the value in µg/mL, omitting the unit from your answer.

>>> result("CCCC[C@H](CN(O)C=O)C(=O)N1CC2(CC2)C[C@H]1c1nc(-c2cccnc2)no1")
0.25

The compound listed as CCCC[C@H](CN(O)C=O)C(=O)N1CC2(CC2)C[C@H]1C(=O)Nc1ncccc1F shows MIC (anti-bacterial activity) equal to 0.25

The compound listed as CCCC[C@H](CN(O)C=O)C(=O)N1CC2(CC2)C[C@H]1C(=O)Nc1cccc(Nc2ncccn2)c1 shows MIC (anti-bacterial activity) equal to 0.125

The compound listed as CCCC[C@H](CN(O)C=O)C(=O)N1CC2(CC2)C[C@H]1c1nnc2ccccn12 shows MIC (anti-bacterial activity) equal to 0.5

The compound listed as CCCC[C@H](CN(O)C=O)C(=O)N1CC2(CC2)C[C@H]1c1nnc(-c2ccccn2)o1 shows MIC (anti-bacterial activity) equal to 1

The compound listed as CCCC[C@H](CN(O)C=O)C(=O)N1CC2(CC2)C[C@H]1C(=O)Nc1ccc(F)c[n+]1[O-] shows MIC (anti-bacterial activity) equal to 0.03

The compound listed as CCCC[C@H](CN(O)C=O)C(=O)N1CC2(CC2)C[C@H]1c1nc2ccccc2[nH]1 shows MIC (anti-bacterial activity) equal to 1

The compound listed as CCCC[C@H](CN(O)C=O)C(=O)N1CC2(CC2)C[C@H]1C(=O)Nc1nccc(-c2cccnc2)n1 shows MIC (anti-bacterial activity) equal to 0.25

The compound listed as CCCC[C@H](CN(O)C=O)C(=O)N1CC2(CC2)C[C@H]1C(=O)Nc1cc[nH]n1 shows MIC (anti-bacterial activity) equal to 8

The compound listed as CCCC[C@H](CN(O)C=O)C(=O)N1CC2(CC2)C[C@H]1C(=O)Nc1cc(C(C)(C)C)on1 shows MIC (anti-bacterial activity) equal to 0.03

====

Below: a set of entries, each annotated with reported Anti-bacterial activity (MIC), strain EFM 15-1.
System: Enterococcus faecium (EFM)
test summary: MIC, two-fold agar dilution (CLSI), clinical isolates
Type: cell-based
condition description: clinical isolate EFM 15-1

Known Anti-bacterial activity (MIC), strain EFM 15-1 results, listed for orientation:
>>> result("CCCC[C@H](CC(=O)NO)C(=O)N1CC2(CC2)C[C@H]1C(=O)Nc1ncco1")
"> 32 µg/mL"
>>> result("O=C(C[C@@H](CC1CCCC1)C(=O)N1CC2(CC2)C[C@H]1C(=O)Nc1ccc(F)cn1)NO")
"32 µg/mL"
>>> result("O=C(C[C@@H](CC1CCCC1)C(=O)N1CC2(CC2)C[C@H]1C(=O)Nc1ccncn1)NO")
"> 32 µg/mL"
>>> result("CCCC[C@H](CC(=O)NO)C(=O)N1CC2(CC2)C[C@H]1C(=O)Nc1nc(C)cs1")
"2 µg/mL"
>>> result("CCCC[C@H](CC(=O)NO)C(=O)N1CC2(CC2)C[C@H]1C(=O)Nc1cnccn1")
"> 32 µg/mL"

The compound listed as O=C(C[C@@H](CC1CCCC1)C(=O)N1CC2(CC2)C[C@H]1C(=O)Nc1ccc(N2CCOCC2)cc1)NO shows Anti-bacterial activity (MIC), strain EFM 15-1 equal to > 32 µg/mL

The compound listed as CCCC[C@H](CC(=O)NO)C(=O)N1CC2(CC2)C[C@H]1C(=O)Nc1nc(C(F)(F)F)cs1 shows Anti-bacterial activity (MIC), strain EFM 15-1 equal to 1 µg/mL

The compound listed as CCCC[C@H](CC(=O)NO)C(=O)N1CC2(CC2)C[C@H]1C(=O)Nc1ccncn1 shows Anti-bacterial activity (MIC), strain EFM 15-1 equal to > 32 µg/mL

The compound listed as O=CN(O)C[C@@H](CC1CCCC1)C(=O)N1CC2(CC2)C[C@H]1c1nc2ccccc2[nH]1 shows Anti-bacterial activity (MIC), strain EFM 15-1 equal to 2 µg/mL

The compound listed as CCCC[C@H](CC(=O)NO)C(=O)N1CC2(CC2)C[C@H]1C(=O)Nc1cc(C(C)(C)C)on1 shows Anti-bacterial activity (MIC), strain EFM 15-1 equal to > 32 µg/mL

The compound listed as CCCC[C@H](CC(=O)NO)C(=O)N1CC2(CC2)C[C@H]1C(=O)Nc1cc(C)on1 shows Anti-bacterial activity (MIC), strain EFM 15-1 equal to 1 µg/mL

The compound listed as CCCC[C@H](CC(=O)NO)C(=O)N1CC2(CC2)C[C@H]1C(=O)Nc1ccc(F)cn1 shows Anti-bacterial activity (MIC), strain EFM 15-1 equal to > 32 µg/mL

The compound listed as O=CN(O)C[C@@H](CC1CCCC1)C(=O)N1CC2(CC2)C[C@H]1C(=O)Nc1nncs1 shows Anti-bacterial activity (MIC), strain EFM 15-1 equal to 1 µg/mL

The compound listed as O=C(C[C@@H](CC1CCCC1)C(=O)N1CC2(CC2)C[C@H]1C(=O)Nc1cnccn1)NO shows Anti-bacterial activity (MIC), strain EFM 15-1 equal to > 32 µg/mL

The compound listed as CCCC[C@H](CC(=O)NO)C(=O)N1CC2(CC2)C[C@H]1C(=O)Nc1cnn(CCN(C)C)c1 shows Anti-bacterial activity (MIC), strain EFM 15-1 equal to > 32 µg/mL

The compound listed as CCCC[C@H](CC(=O)NO)C(=O)N1CC2(CC2)C[C@H]1c1nc2ccccc2[nH]1 shows Anti-bacterial activity (MIC), strain EFM 15-1 equal to > 32 µg/mL
